Biological target: Cyclin-dependent kinase 1 (Homo sapiens);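 further: enzyme assay on the CDK1/cyclin B complex, reported as mean percent inhibition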
Settings: at 0.1 µM
We use 0.4% as the dividing line for inhibition: on or above the line is satisfied, below is not satisfied.

1. CNC(=O)c1cccc(C#Cc2cncnc2Nc2ccc(OCc3cccc(F)c3)c(Cl)c2)c1	satisfied
2. CCn1c(-c2nonc2N)nc2cnc(Oc3cccc(NC(=O)c4ccc(N(C)C)cc4)c3)cc21	satisfied
3. COc1ccc2[nH]c3c4[nH]c5ccc(OC)cc5c4c4c(c3c2c1)C(=O)NC4=O	not satisfied
4. COC(=O)Nc1nc2ccc(S(=O)(=O)c3ccc(NC(=O)Nc4cc(C(F)(F)F)ccc4F)cc3)cc2[nH]1	satisfied
5. CN1CCC(n2cnc(-c3ccc(F)cc3)c2-c2ccnc(N)n2)CC1	not satisfied
